# System: wheat germ agglutinin (Triticum aestivum), Alexa647-labelled
# EXPERIMENTAL DETAILS: wheat germ agglutinin binders on compound microarrays, profiling panel, artefact control for SMM control-protein annotation, biochemical, small-molecule microarray, 635/667 nm fluorescence (AID 1140);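 further: score merges 667 nm feature emission with signal to noise over triplicate slides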
# CONDITION PARAMETERS: WGA-A647 binding, 635 nm fluorescence, higher = more signal

{"SAMPLE SMILES": "CO[C@@H]1COC(=O)[C@H](COCc2ccccc2)NC(=O)CC=C[C@@H](C)[C@H](OC)COC(=O)[C@H](COCc2ccccc2)NC(=O)CC=C[C@H]1C", "composite z-score": -0.915}
{"SAMPLE SMILES": "C=C(CCCC)/C(=C/C[C@@H](OC(=O)c1ccncc1)c1ccc(CO)o1)c1cnc2ccccc2c1", "composite z-score": 1.22}
{"SAMPLE SMILES": "COCCOC(=O)N1C(=O)[C@@]2(c3cc(C#CC4=CCCCC4)ccc31)[C@H](c1ccc(O)cc1)N1[C@H](c3ccccc3)[C@H](c3ccccc3)OC(=O)[C@H]1[C@@H]2C(=O)N1CCCCCCC1", "composite z-score": 0.576}
{"SAMPLE SMILES": "C#CCCCON=C1C[C@@H](O)[C@@H](O)[C@@H]2[C@@H]3C(=O)N(Cc4ccc5c(c4)OCO5)C(=O)[C@@H]3CC[C@@H]12", "composite z-score": 1.14}
{"SAMPLE SMILES": "CCCC=C(CCC)[C@@H](NS(=O)(=O)c1ccc(C(F)(F)F)cc1)c1ccc(-c2ccccc2)cc1", "composite z-score": 1.2}
{"SAMPLE SMILES": "C=C(/C(=C/C[C@@H](OC(=O)c1ccncc1)c1ccc(CO)o1)c1cnc2ccccc2c1)C(C)C", "composite z-score": 1.4}
{"SAMPLE SMILES": "COCCOC(=O)N1C(=O)[C@@]2(c3cc(C#CC4=CCCCC4)ccc31)[C@H](C(=O)NC[C@H](O)c1ccccc1)[C@H]1C(=O)O[C@H](c3ccccc3)[C@H](c3ccccc3)N1[C@@H]2c1ccc(OCCO)cc1", "composite z-score": 0.971}

###

# SYSTEM NAME: Pro-neuregulin-1, membrane-bound isoform (Homo sapiens) (UniProt Q02297)
# Sequence (Q02297 whole entry, looked up, canonical isoform): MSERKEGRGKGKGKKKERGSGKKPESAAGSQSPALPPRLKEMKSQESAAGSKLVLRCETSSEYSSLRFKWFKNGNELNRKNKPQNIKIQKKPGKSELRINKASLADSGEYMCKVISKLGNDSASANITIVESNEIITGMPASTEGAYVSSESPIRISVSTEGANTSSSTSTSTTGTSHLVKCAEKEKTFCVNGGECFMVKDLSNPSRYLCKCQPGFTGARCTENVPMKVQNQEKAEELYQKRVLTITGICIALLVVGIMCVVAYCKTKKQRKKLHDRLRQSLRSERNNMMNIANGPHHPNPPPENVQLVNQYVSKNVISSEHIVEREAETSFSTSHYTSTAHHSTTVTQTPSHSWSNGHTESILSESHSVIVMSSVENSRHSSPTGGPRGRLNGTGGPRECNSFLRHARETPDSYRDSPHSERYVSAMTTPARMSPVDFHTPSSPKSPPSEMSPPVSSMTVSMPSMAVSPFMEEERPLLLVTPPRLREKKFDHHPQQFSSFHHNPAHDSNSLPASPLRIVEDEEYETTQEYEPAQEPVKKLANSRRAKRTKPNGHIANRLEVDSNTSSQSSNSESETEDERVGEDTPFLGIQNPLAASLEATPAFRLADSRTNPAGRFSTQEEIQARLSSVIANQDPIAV
# EXPERIMENTAL DETAILS: NRG1 binders on small-molecule microarrays, primary screen, psychiatric disease protein project, biochemical, small-molecule microarray, fluorescence 635/667 (AID 1075);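 further: score combines 667 nm spot fluorescence with signal to noise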
# CONDITION PARAMETERS: NRG1 binding, 635 nm fluorescence, higher = more signal
Listing of recorded composite z-score by entry.
PROPERTY NAME: composite z-score

{"COMPOUND": "COc1ccc([Si](C)(C)[C@H]2[C@H](CC(=O)N(CCO)Cc3ccccc3)O[C@@]3(C(=O)N(C)c4ccccc43)[C@@H]2C)cc1", "NUMERIC VALUE": 0.67}
{"COMPOUND": "COC(=O)[C@@]1(Cc2ccccc2CN=[N+]=[N-])N=C(c2ccc(OCCCO)cc2)O[C@H]1c1ccccc1N=[N+]=[N-]", "NUMERIC VALUE": 1.09}
{"COMPOUND": "COC(=O)[C@@]1(Cc2ccc(OC)cc2)[C@H]2c3cc(C(=O)N(C)C)n(Cc4ccc(C)c(F)c4F)c3C[C@H]2CN1C(=O)c1ccccc1", "NUMERIC VALUE": 0.57}
{"COMPOUND": "C=C(COC)/C(=C/C[C@H](OC(C)=O)c1ccc(OCCO)cc1)c1cnc2ccccc2c1", "NUMERIC VALUE": -0.0967}
{"COMPOUND": "O=C(N1CCCCC1)[C@@]1(CCS(=O)(=O)c2ccccc2)N=C(c2ccc(OCCCO)cc2)O[C@H]1c1ccccc1", "NUMERIC VALUE": 0.0933}
{"COMPOUND": "Cc1ccc(S[C@]2(C(=O)NCCN3CCOCC3)CC(=O)N(C3Cc4ccccc4C3)[C@@H]2c2ccc(CO)cc2I)cc1", "NUMERIC VALUE": 1.69}
{"COMPOUND": "CCOC(=O)[C@H]1C/C=C/C[C@H](C(=O)OCC)C(=O)O[C@H]2[C@@H](OC)O[C@H](CO)[C@@H](OC(=O)Nc3ccc(Br)cc3)[C@@H]2OC1=O", "NUMERIC VALUE": 0.991}
{"COMPOUND": "C=CC[C@]1(C(=O)N2CCCCC2)N=C(c2ccc(OCCCO)cc2)O[C@H]1c1ccccc1N=[N+]=[N-]", "NUMERIC VALUE": 1.67}
{"COMPOUND": "CC(=O)NCCCC[C@@H]1NC(=O)[C@@H]2C[C@H](C(=O)NCCCCCCN(C)C)[C@H](c3ccc(O)cc3)N2C1=O", "NUMERIC VALUE": 1.56}
{"COMPOUND": "COC(=O)C[C@H]1O[C@]2(C(=O)N(Cc3ccccc3)c3ccc(I)cc32)[C@@H](C)[C@@H]1[Si](C)(C)c1ccc(OC)cc1", "NUMERIC VALUE": -0.121}
{"COMPOUND": "CCCC[C@H]1OB(O)C[C@H]2C1=C(COC)C[C@H]1C(=O)N(Cc3ccccc3)C(=O)[C@H]12", "NUMERIC VALUE": 0.173}
{"COMPOUND": "COc1cc2c(cc1OC)CN(C(=O)[C@H]1[C@@H]3C(=O)O[C@@H](c4ccccc4)[C@@H](c4ccccc4)N3[C@@H](c3ccc(O)cc3)[C@]13C(=O)Nc1ccc(C#CC4(O)CCCCCC4)cc13)CC2", "NUMERIC VALUE": 2.26}
{"COMPOUND": "C=CC[C@]1(C(=O)OC)N=C(c2ccc(OCCCO)cc2)O[C@H]1c1ccccc1CN=[N+]=[N-]", "NUMERIC VALUE": 0.391}
{"COMPOUND": "C[C@@H]1NC(=O)[C@H](Cc2ccccc2)NC(=O)[C@@]23C(=O)N[C@@H](Cc4ccccc4)C2[C@H](C)[C@@]2(C)O[C@H]2C3/C=C/C/C=C\\CNC1=O (some centres undefined)", "NUMERIC VALUE": -0.318}
{"COMPOUND": "O=C1OCC=C[C@H]2OC34C=CCN(Cc5ccccc5)C(=O)[C@H]3N(CCCCCO)C(=O)[C@@H]4[C@@H]12 (some centres undefined)", "NUMERIC VALUE": 1.13}
{"COMPOUND": "CCCC=C(CCC)[C@@H](NC(=O)c1ccccc1)c1ccccc1", "NUMERIC VALUE": -0.806}
{"COMPOUND": "O=C1C[C@@](C(=O)NCCN2CCOCC2)(c2ccc([N+](=O)[O-])cc2)[C@@H](c2ccc(CO)cc2)N1C1CCCCC1", "NUMERIC VALUE": 0.548}
{"COMPOUND": "Cc1ccc(N2C(=O)c3ccccc3[C@](C)(C(=O)NCC(C)C)[C@@H]2c2ccc(CO)cc2)nc1", "NUMERIC VALUE": -1.05}
{"COMPOUND": "CCOC(=O)C1=CC[C@@H](c2ccccc2)N(S(=O)(=O)c2ccc(C)cc2)[C@H]1C", "NUMERIC VALUE": 1.45}
{"COMPOUND": "CO[C@H]1O[C@H](CO)[C@@H](OC(=O)Nc2ccc3c(c2)OCO3)[C@H](OC(=O)Nc2ccccc2)[C@@H]1OC(=O)Nc1ccccc1", "NUMERIC VALUE": 1.27}
{"COMPOUND": "Cc1ccc(S[C@]2(C(=O)O)CC(=O)N(Cc3cc(C(F)(F)F)cc(C(F)(F)F)c3)[C@@H]2c2ccc(CO)cc2I)cc1", "NUMERIC VALUE": 1.28}
{"COMPOUND": "C=CCNC(=O)[C@@H]1[C@H]2C(=O)O[C@H](c3ccccc3)[C@H](c3ccccc3)N2[C@H](c2ccc(OCCO)cc2)[C@@]12C(=O)N(C(=O)OCCOC)c1ccc(C#CC3(O)CCCCCC3)cc12", "NUMERIC VALUE": 0.508}
{"COMPOUND": "C=CCN(C(=O)C1N(c2ccc(CCO)cc2)C(=O)C2C(C(=O)O)C3C=CC21O3)C(C)(C)C (centres undefined)", "NUMERIC VALUE": -0.367}
{"COMPOUND": "COCCCNC(=O)[C@@]1(c2ccc([N+](=O)[O-])cc2)CC(=O)N(C2CCCCC2)[C@@H]1c1ccc(CO)cc1", "NUMERIC VALUE": 0.763}
{"COMPOUND": "C=C[C@H](OC)[C@@H](OC(=O)Nc1ccc(SC)cc1)c1ccc(OC)c(O)c1", "NUMERIC VALUE": -0.231}
{"COMPOUND": "CC/C=C/C(=O)N(C[C@@H]1CCCO1)[C@@H]1CC(C(=O)NCCO)=C[C@H](Oc2c(I)cc(CO)cc2OC)[C@H]1O", "NUMERIC VALUE": 0.06}
{"COMPOUND": "CCc1cccc(NC(=O)O[C@H]2[C@H](OC(=O)Nc3ccccc3)[C@@H](OC(=O)Nc3ccccc3)[C@@H](OC)O[C@@H]2CO)c1", "NUMERIC VALUE": 1.76}
{"COMPOUND": "CCN1C(C)=C(C(=O)OC)[C@@H](c2ccccc2)N2C(=O)[C@@]3(C(=O)OC)O[C@@]12[C@@H]1C(=O)N(C)C(=O)[C@@H]13", "NUMERIC VALUE": 0.825}
{"COMPOUND": "C=C(C)[C@@H]1CC=C(C(O)C2C=CC3C(=O)NC(=O)C3N2Nc2ccccn2)CC1 (some centres undefined)", "NUMERIC VALUE": 1.36}
